Overview of recorded pEC50 for various compounds
# Tested on: EGFR T790M/L858R Ba/F3 cell line
# Protocol: Ba/F3 cell proliferation (MTS assay), EGFR T790M/L858R
# Assay type: cell-based, murine
# Stated Conditions: read-out: Ba/F3 cellular activity (EC50) T790M/L858R + Cetuximab (1 μg/mL); presence of 1 μg/mL cetuximab
pEC50: −log10 of the molar value.

# count of solved cases: 3
>>> print(df.to_string())
                                   compound  test_readout    meas_value
0  CCC(=O)Nc1ccc2c(c1)N(Cc1ccccc1)C(=O)c1cc(-c3ccc4[nH]ccc4c3)ccc1N2 [Compound I-16]         pEC50  6.30 to 6.60
1  CC(=O)Nc1ccc2c(c1)N(Cc1ccccc1)C(=O)c1cc(-c3ccc4[nH]ccc4c3)ccc1N2 [Compound I-15]         pEC50        ≤ 6.12
2  O=C1c2cc(-c3ccc(N4CCNCC4)cc3)ccc2Nc2ccc(F)cc2N1Cc1ccccc1 [Compound I-1]         pEC50  6.12 to 6.30

Next up:
Reported pEC50 for O=C1c2cc(-c3ccc(N4CCNCC4)cc3)ccc2Nc2ccc(F)cc2N1Cc1ccc2cc[nH]c2c1 [Compound I-19] was ≤ 6.12
